Tested on: ATP
Assay: switch fluorescence ratio, 500 uM ATP over buffer (Cy3 cluster intensity, sum of 5 cycles each) (fold (ratio)); higher = stronger signal-on switching upon ATP binding; sequences stand for … in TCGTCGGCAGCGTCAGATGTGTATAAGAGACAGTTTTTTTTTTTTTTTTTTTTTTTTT…TC
Details: aptamer strand: ATP DNA aptamer (quencher-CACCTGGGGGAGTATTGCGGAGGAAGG + anchor), 100 nM annealed; ATP concentration: 500 uM
Measurement label: switch fluorescence ratio

Macromolecule sequence: TTAGGATGTG
Study target: ATP
Result: 0.984

Macromolecule sequence: TTTCGTTTTC
Study target: ATP
Result: 1.08

Macromolecule sequence: GGGAAATAGC
Study target: ATP
Result: 1.06

Macromolecule sequence: ACAAGTGTGC
Study target: ATP
Result: 1.04

Macromolecule sequence: CGAAGGCTGT
Study target: ATP
Result: 1

Macromolecule sequence: TCACCGCACG
Study target: ATP;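 further: ATP exposure 15 min at 22 °C before imaging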
Result: 2.2

Macromolecule sequence: ATCCGGTCGC
Study target: ATP;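 further: ATP exposure 15 min at 22 °C before imaging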
Result: 1.04

Macromolecule sequence: TAGGGGGTTT
Study target: ATP;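 further: ATP exposure 15 min at 22 °C before imaging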
Result: 0.99

Macromolecule sequence: TAAAGTCATA
Study target: ATP;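 further: ATP exposure 15 min at 22 °C before imaging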
Result: 1.01

Macromolecule sequence: TTTTACAAGG
Study target: ATP;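 further: ATP exposure 15 min at 22 °C before imaging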
Result: 0.983

Macromolecule sequence: TTGGAAACGT
Study target: ATP;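 further: ATP exposure 15 min at 22 °C before imaging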
Result: 1.06

Macromolecule sequence: AAGGGTTGTC
Study target: ATP;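 further: ATP exposure 15 min at 22 °C before imaging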
Result: 0.999

Macromolecule sequence: GGGCATTGCT
Study target: ATP;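 further: ATP exposure 15 min at 22 °C before imaging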
Result: 0.975

Macromolecule sequence: TCTCAAAAAT
Study target: ATP;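 further: ATP exposure 15 min at 22 °C before imaging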
Result: 1.1

Macromolecule sequence: GACTCGAGGC
Study target: ATP;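 further: ATP exposure 15 min at 22 °C before imaging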
Result: 1.05

Macromolecule sequence: TTGTTTTTCG
Study target: ATP;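 further: ATP exposure 15 min at 22 °C before imaging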
Result: 0.978

Macromolecule sequence: ATAAGGATCT
Study target: ATP;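 further: ATP exposure 15 min at 22 °C before imaging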
Result: 1.03

Macromolecule sequence: TTAATTAGTT
Study target: ATP;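 further: ATP exposure 15 min at 22 °C before imaging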
Result: 1.01

Macromolecule sequence: TTGTGTACCG
Study target: ATP;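 further: ATP exposure 15 min at 22 °C before imaging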
Result: 0.96

Macromolecule sequence: TCTAAAAAGG
Study target: ATP;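 further: ATP exposure 15 min at 22 °C before imaging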
Result: 0.998

Macromolecule sequence: GGCAGTTGCT
Study target: ATP;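 further: ATP exposure 15 min at 22 °C before imaging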
Result: 0.988

Macromolecule sequence: GCGGTAATTT
Study target: ATP;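 further: ATP exposure 15 min at 22 °C before imaging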
Result: 1

Macromolecule sequence: AATTGAGTGG
Study target: ATP;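 further: ATP exposure 15 min at 22 °C before imaging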
Result: 1.01

Macromolecule sequence: GCGTAAGGGT
Study target: ATP;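 further: ATP exposure 15 min at 22 °C before imaging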
Result: 0.985

Macromolecule sequence: GAACGTTTGC
Study target: ATP;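 further: ATP exposure 15 min at 22 °C before imaging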
Result: 1.11

Macromolecule sequence: ATCTGCAACA
Study target: ATP;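 further: ATP exposure 15 min at 22 °C before imaging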
Result: 1.62

Macromolecule sequence: CTTAGGGATT
Study target: ATP;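 further: ATP exposure 15 min at 22 °C before imaging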
Result: 0.987

Macromolecule sequence: TGCAGTAGTT
Study target: ATP;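 further: ATP exposure 15 min at 22 °C before imaging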
Result: 1.01

Macromolecule sequence: TTAATCCTTG
Study target: ATP;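 further: ATP exposure 15 min at 22 °C before imaging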
Result: 1.02

Macromolecule sequence: TGAATTTATA
Study target: ATP;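 further: ATP exposure 15 min at 22 °C before imaging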
Result: 1.02

Macromolecule sequence: ACATAAAAGG
Study target: ATP;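 further: ATP exposure 15 min at 22 °C before imaging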
Result: 0.994

Macromolecule sequence: TTTAAGCCCC
Study target: ATP;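 further: ATP exposure 15 min at 22 °C before imaging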
Result: 0.985

Macromolecule sequence: ATAGCTAACT
Study target: ATP;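 further: ATP exposure 15 min at 22 °C before imaging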
Result: 1.02

Macromolecule sequence: ATCTTCCAGG
Study target: ATP;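 further: ATP exposure 15 min at 22 °C before imaging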
Result: 1.61

Macromolecule sequence: GGAATGGATA
Study target: ATP;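 further: ATP exposure 15 min at 22 °C before imaging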
Result: 1

Macromolecule sequence: AACGATATTC
Study target: ATP;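 further: ATP exposure 15 min at 22 °C before imaging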
Result: 1.07

Macromolecule sequence: TTTTTTTGCG
Study target: ATP;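 further: ATP exposure 15 min at 22 °C before imaging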
Result: 1.02

Macromolecule sequence: GAGTGTGCGT
Study target: ATP;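 further: ATP exposure 15 min at 22 °C before imaging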
Result: 0.975

Macromolecule sequence: ACCCATCTGT
Study target: ATP;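 further: ATP exposure 15 min at 22 °C before imaging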
Result: 0.979

Macromolecule sequence: GTTTTTTACG
Study target: ATP;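 further: ATP exposure 15 min at 22 °C before imaging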
Result: 0.998

Macromolecule sequence: ATGGGCCCT
Study target: ATP;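 further: ATP exposure 15 min at 22 °C before imaging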
Result: 0.997

Macromolecule sequence: GGGTGTGGAG
Study target: ATP;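 further: ATP exposure 15 min at 22 °C before imaging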
Result: 1.01

Macromolecule sequence: TTTCGAGAAC
Study target: ATP;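 further: ATP exposure 15 min at 22 °C before imaging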
Result: 0.987

Macromolecule sequence: TCAAATTTTA
Study target: ATP;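 further: ATP exposure 15 min at 22 °C before imaging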
Result: 1.02

Macromolecule sequence: GTGTCGGGAA
Study target: ATP;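 further: ATP exposure 15 min at 22 °C before imaging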
Result: 0.984

Macromolecule sequence: TCAGCAAAGT
Study target: ATP;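 further: ATP exposure 15 min at 22 °C before imaging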
Result: 1.08

Macromolecule sequence: TAGAGGGGCA
Study target: ATP;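 further: ATP exposure 15 min at 22 °C before imaging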
Result: 0.979

Macromolecule sequence: GCTACCTTTT
Study target: ATP;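 further: ATP exposure 15 min at 22 °C before imaging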
Result: 1.06

Macromolecule sequence: TAGTAAGGGG
Study target: ATP;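 further: ATP exposure 15 min at 22 °C before imaging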
Result: 0.969

Macromolecule sequence: TATCGTAGGA
Study target: ATP;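 further: ATP exposure 15 min at 22 °C before imaging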
Result: 0.977

Macromolecule sequence: AGATGAGGGT
Study target: ATP;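 further: ATP exposure 15 min at 22 °C before imaging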
Result: 1

Macromolecule sequence: GAAGGGGTAC
Study target: ATP;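 further: ATP exposure 15 min at 22 °C before imaging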
Result: 1.16

Macromolecule sequence: TTGGCCTTCC
Study target: ATP;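 further: ATP exposure 15 min at 22 °C before imaging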
Result: 2.19

Macromolecule sequence: TCATCATGTT
Study target: ATP;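 further: ATP exposure 15 min at 22 °C before imaging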
Result: 1.01

Macromolecule sequence: TTGAGGGTTC
Study target: ATP;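 further: ATP exposure 15 min at 22 °C before imaging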
Result: 0.96

Macromolecule sequence: GATAATTATG
Study target: ATP;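 further: ATP exposure 15 min at 22 °C before imaging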
Result: 0.98

Macromolecule sequence: AGCAATTGGT
Study target: ATP;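 further: ATP exposure 15 min at 22 °C before imaging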
Result: 1.06

Macromolecule sequence: CATCCACGTA
Study target: ATP;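 further: ATP exposure 15 min at 22 °C before imaging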
Result: 1.2

Macromolecule sequence: GTTTCAGGTT
Study target: ATP;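 further: ATP exposure 15 min at 22 °C before imaging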
Result: 2.12

Macromolecule sequence: GGCGGGTAAT
Study target: ATP;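 further: ATP exposure 15 min at 22 °C before imaging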
Result: 1.04

Macromolecule sequence: TTGGTGAAGG
Study target: ATP;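 further: ATP exposure 15 min at 22 °C before imaging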
Result: 1.01

Macromolecule sequence: TTTGAAAATG
Study target: ATP;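 further: ATP exposure 15 min at 22 °C before imaging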
Result: 1.01

Macromolecule sequence: TTTGAATTCA
Study target: ATP;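 further: ATP exposure 15 min at 22 °C before imaging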
Result: 1.19

Macromolecule sequence: TTTTCTCTTC
Study target: ATP;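 further: ATP exposure 15 min at 22 °C before imaging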
Result: 0.981

Macromolecule sequence: AGGGTGTCGA
Study target: ATP;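 further: ATP exposure 15 min at 22 °C before imaging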
Result: 1.02

Macromolecule sequence: CCCAGATTTT
Study target: ATP;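 further: ATP exposure 15 min at 22 °C before imaging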
Result: 1.02

Macromolecule sequence: GTTGGTCGTG
Study target: ATP;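 further: ATP exposure 15 min at 22 °C before imaging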
Result: 1

Macromolecule sequence: TTTTCCTCCC
Study target: ATP;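 further: ATP exposure 15 min at 22 °C before imaging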
Result: 1.28

Macromolecule sequence: TAGAAATTGG
Study target: ATP;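 further: ATP exposure 15 min at 22 °C before imaging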
Result: 1.03

Macromolecule sequence: GTTGGTGTTT
Study target: ATP;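 further: ATP exposure 15 min at 22 °C before imaging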
Result: 0.985

Macromolecule sequence: AGCGTTAGAG
Study target: ATP;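 further: ATP exposure 15 min at 22 °C before imaging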
Result: 1.09

Macromolecule sequence: GAGCCTCGGA
Study target: ATP;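 further: ATP exposure 15 min at 22 °C before imaging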
Result: 1.29

Macromolecule sequence: TAATAAAATG
Study target: ATP;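 further: ATP exposure 15 min at 22 °C before imaging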
Result: 0.99

Macromolecule sequence: AGTATCGAGC
Study target: ATP;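 further: ATP exposure 15 min at 22 °C before imaging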
Result: 1.02

Macromolecule sequence: TGATTTAGAG
Study target: ATP;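 further: ATP exposure 15 min at 22 °C before imaging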
Result: 0.998

Macromolecule sequence: GTCGACAGGT
Study target: ATP;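 further: ATP exposure 15 min at 22 °C before imaging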
Result: 0.987

Macromolecule sequence: CCTATTCTGA
Study target: ATP;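 further: ATP exposure 15 min at 22 °C before imaging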
Result: 0.97

Macromolecule sequence: AACGGGGTGT
Study target: ATP;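 further: ATP exposure 15 min at 22 °C before imaging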
Result: 1.06

----------
Tested on: ATP;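 further: ATP exposure 15 min at 22 °C before imaging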
Experiment: switch fluorescence ratio, 500 uM ATP over buffer (Cy3 cluster intensity, sum of 5 cycles each) (fold (ratio)); higher = stronger signal-on switching upon ATP binding; sequences stand for … in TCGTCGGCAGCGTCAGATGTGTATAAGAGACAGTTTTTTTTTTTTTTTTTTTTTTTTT…TC
Settings: aptamer strand: ATP DNA aptamer (quencher-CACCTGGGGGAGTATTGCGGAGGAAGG + anchor), 100 nM annealed; ATP concentration: 500 uM
Binary call on switch fluorescence ratio: 1 from 1 upward, 0 beneath that.

Macromolecule sequence: CAGGGGTTGT
Assigned label: 1
--
Macromolecule sequence: ATAGTAAAAC
Assigned label: 1
--
Macromolecule sequence: CTGGTTAAGG
Assigned label: 0
--
Macromolecule sequence: TTTATCTTCG
Assigned label: 1

----------
# maps each entry to its switch fluorescence ratio
Tested on: ATP;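 further: ATP exposure 15 min at 22 °C before imaging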
Test: switch fluorescence ratio, 500 uM ATP over buffer (Cy3 cluster intensity, sum of 5 cycles each) (fold (ratio)); higher = stronger signal-on switching upon ATP binding; sequences stand for … in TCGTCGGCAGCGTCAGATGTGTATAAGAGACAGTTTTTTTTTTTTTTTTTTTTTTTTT…TC
Details: aptamer strand: ATP DNA aptamer (quencher-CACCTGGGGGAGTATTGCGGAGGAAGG + anchor), 100 nM annealed; ATP concentration: 500 uM

Macromolecule sequence: TTTAATGGAA
switch fluorescence ratio: 0.988

Macromolecule sequence: TGAATCATGG
switch fluorescence ratio: 0.972

Macromolecule sequence: TAGGGGTCAA
switch fluorescence ratio: 0.998

Macromolecule sequence: ATATAGAATA
switch fluorescence ratio: 1.03

Macromolecule sequence: CTTTGGATTG
switch fluorescence ratio: 0.999

Macromolecule sequence: TTCGGTTTTG
switch fluorescence ratio: 0.993

Macromolecule sequence: ATAGAATTGT
switch fluorescence ratio: 0.98

Macromolecule sequence: AAGAAGAGGT
switch fluorescence ratio: 1.15

Macromolecule sequence: TTAGGTTTAA
switch fluorescence ratio: 1.02

Macromolecule sequence: CGGTCCGGG
switch fluorescence ratio: 1.05

Macromolecule sequence: GACAGGAATT
switch fluorescence ratio: 1.03

Macromolecule sequence: AGTTTTGCGC
switch fluorescence ratio: 0.972

Macromolecule sequence: ACCCGTACAT
switch fluorescence ratio: 1.11

Macromolecule sequence: GTTCCTTGGG
switch fluorescence ratio: 1.01

Macromolecule sequence: TGCGAAAGAT
switch fluorescence ratio: 1.05

Macromolecule sequence: GAGGGGAGGG
switch fluorescence ratio: 1.04

Macromolecule sequence: GAAATTTTGT
switch fluorescence ratio: 0.994

Macromolecule sequence: GATGGGAATG
switch fluorescence ratio: 1.01

Macromolecule sequence: GGAGCAGCTA
switch fluorescence ratio: 1.06

Macromolecule sequence: TTTCTAGTGA
switch fluorescence ratio: 0.991

Macromolecule sequence: TAGTCGCTCC
switch fluorescence ratio: 1.03

Macromolecule sequence: ATAGGAAATC
switch fluorescence ratio: 2.74

Macromolecule sequence: TAATACGTTG
switch fluorescence ratio: 1.03

Macromolecule sequence: TACGGGTTCG
switch fluorescence ratio: 0.99

Macromolecule sequence: GGGGTTAAGG
switch fluorescence ratio: 0.978

Macromolecule sequence: CTGGGTATTG
switch fluorescence ratio: 0.971

Macromolecule sequence: TGGTTGGAAG
switch fluorescence ratio: 0.987

Macromolecule sequence: ACTGGGCTGT
switch fluorescence ratio: 1.06

Macromolecule sequence: TTTGGCTTTA
switch fluorescence ratio: 0.977

Macromolecule sequence: TGGGGTATCT
switch fluorescence ratio: 1

Macromolecule sequence: GATTTTGGCC
switch fluorescence ratio: 0.959

Macromolecule sequence: GATATGCGTC
switch fluorescence ratio: 1.04

Macromolecule sequence: TGGGCCGGTA
switch fluorescence ratio: 1.02

Macromolecule sequence: GCCTTTCAGA
switch fluorescence ratio: 1

Macromolecule sequence: GACGACGGGG
switch fluorescence ratio: 1.05

Macromolecule sequence: TTATTTAGAC
switch fluorescence ratio: 1

Macromolecule sequence: CGTGAGGGGG
switch fluorescence ratio: 1.01

Macromolecule sequence: TATTTTTGCG
switch fluorescence ratio: 0.97

Macromolecule sequence: GTTGGTATTC
switch fluorescence ratio: 0.996

Macromolecule sequence: ACTCAGTGTC
switch fluorescence ratio: 1.05

Macromolecule sequence: TGATGGCGGG
switch fluorescence ratio: 0.992

Macromolecule sequence: TAAGGAATGA
switch fluorescence ratio: 0.993

Macromolecule sequence: GGAGTTTAGT
switch fluorescence ratio: 1.01

Macromolecule sequence: AGGATATATT
switch fluorescence ratio: 0.976

Macromolecule sequence: GCGCTAGATG
switch fluorescence ratio: 1.01

Macromolecule sequence: TCAGGGATTG
switch fluorescence ratio: 0.977

Macromolecule sequence: CACGTGTGGT
switch fluorescence ratio: 0.988

Macromolecule sequence: GCATTGGTCA
switch fluorescence ratio: 1.03

Macromolecule sequence: TTGTATTATG
switch fluorescence ratio: 1.01

Macromolecule sequence: TGCTCCGTCG
switch fluorescence ratio: 1.2

Macromolecule sequence: CGCTGCGGTT
switch fluorescence ratio: 1.01

Macromolecule sequence: GGGTGTTGCT
switch fluorescence ratio: 1

Macromolecule sequence: GGTTCTGGGT
switch fluorescence ratio: 1

Macromolecule sequence: TCGGGTGTTG
switch fluorescence ratio: 1.03

Macromolecule sequence: AAAGGGTGGC
switch fluorescence ratio: 1.01

Macromolecule sequence: TTAAAGTAGC
switch fluorescence ratio: 1.02

Macromolecule sequence: TGTTTTCTTT
switch fluorescence ratio: 0.987

Macromolecule sequence: CAGTTATGAC
switch fluorescence ratio: 0.987

Macromolecule sequence: GCAGATCGAT
switch fluorescence ratio: 1.03

Macromolecule sequence: CGCATAGGCT
switch fluorescence ratio: 1.11

Macromolecule sequence: ACAATAATAT
switch fluorescence ratio: 1

Macromolecule sequence: CCGCCAGGGG
switch fluorescence ratio: 3.42

Macromolecule sequence: GATTGTTTTG
switch fluorescence ratio: 1.01

Macromolecule sequence: GGTTGAGCGT
switch fluorescence ratio: 1.01
